# systemName: von Hippel-Lindau disease tumor suppressor/Tyrosine-protein phosphatase non-receptor type 11 (Homo sapiens, UniProt Q06124+P40337)
# Sequence (P40337 whole entry partner): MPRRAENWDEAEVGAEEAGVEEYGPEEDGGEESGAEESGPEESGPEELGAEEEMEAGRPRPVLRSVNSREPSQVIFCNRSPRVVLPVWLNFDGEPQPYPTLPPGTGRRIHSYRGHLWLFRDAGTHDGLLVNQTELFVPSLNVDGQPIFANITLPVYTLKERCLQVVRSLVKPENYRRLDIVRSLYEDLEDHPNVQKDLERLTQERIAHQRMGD
# Sequence (Q06124 2-593 limits assumed): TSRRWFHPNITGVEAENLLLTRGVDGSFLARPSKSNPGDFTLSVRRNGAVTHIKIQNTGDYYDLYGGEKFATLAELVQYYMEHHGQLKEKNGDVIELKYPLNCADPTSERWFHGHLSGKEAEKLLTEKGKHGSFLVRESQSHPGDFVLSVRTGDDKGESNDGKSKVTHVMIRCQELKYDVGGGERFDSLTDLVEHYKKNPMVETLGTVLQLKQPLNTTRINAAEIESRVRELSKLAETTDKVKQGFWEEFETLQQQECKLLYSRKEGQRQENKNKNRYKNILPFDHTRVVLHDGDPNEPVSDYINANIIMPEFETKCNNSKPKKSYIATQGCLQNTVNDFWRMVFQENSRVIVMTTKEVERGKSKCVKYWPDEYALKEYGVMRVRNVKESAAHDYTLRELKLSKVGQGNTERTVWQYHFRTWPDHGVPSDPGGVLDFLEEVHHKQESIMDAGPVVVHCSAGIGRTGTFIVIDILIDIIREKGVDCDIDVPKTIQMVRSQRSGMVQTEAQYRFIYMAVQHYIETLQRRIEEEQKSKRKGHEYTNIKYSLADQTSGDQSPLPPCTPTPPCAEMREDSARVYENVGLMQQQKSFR
# protocol: Protac activity at VHL1/SHP2 in human KYSE520 cells assessed as induction of SHP2 degradation at 0.1 uM measured after 6 hrs by Western blot analysis relative to control
# Assay type: cell-based
readoutKind: Activity (%)

1. Cc1ncsc1-c1ccc([C@H](C)NC(=O)[C@@H]2C[C@@H](O)CN2C(=O)[C@@H](NC(=O)COCCOCCOCCNC(=O)CCC(=O)Nc2cccc(Sc3ncc(N4CCC(C)(N)CC4)nc3N)c2Cl)C(C)(C)C)cc1 (single isomer, unassigned) : 80
2. Cc1ncsc1-c1ccc([C@H](C)NC(=O)[C@@H]2C[C@@H](O)CN2C(=O)[C@@H](NC(=O)CCCNC(=O)CC(=O)Nc2cccc(Sc3ncc(N4CCC(C)(N)CC4)nc3N)c2Cl)C(C)(C)C)cc1 (single isomer, unassigned) : 9
3. Cc1ncsc1-c1ccc([C@H](C)NC(=O)[C@@H]2C[C@@H](O)CN2C(=O)[C@@H](NC(=O)CCCCCCCCCCCCCCC(=O)Nc2cccc(Sc3ncc(N4CCC(C)(N)CC4)nc3N)c2Cl)C(C)(C)C)cc1 (single isomer, unassigned) : 62

====

# systemName: von Hippel-Lindau disease tumor suppressor/Tyrosine-protein phosphatase non-receptor type 11 (Homo sapiens, UniProt Q06124+P40337)
# protocol: Protac activity at VHL1/SHP2 in human KYSE520 cells assessed as induction of SHP2 degradation at 1 uM measured after 6 hrs by Western blot analysis relative to control
# Assay type: cell-based
readoutKind: Activity

1) Cc1ncsc1-c1ccc([C@H](C)NC(=O)[C@@H]2C[C@@H](O)CN2C(=O)[C@@H](NC(=O)COCCOCCOCCOCCNC(=O)CCC(=O)Nc2cccc(Sc3ncc(N4CCC(C)(N)CC4)nc3N)c2Cl)C(C)(C)C)cc1 (single isomer, unassigned) : > 95%
2) Cc1ncsc1-c1ccc([C@H](C)NC(=O)[C@@H]2C[C@@H](O)CN2C(=O)[C@@H](NC(=O)CCCCCCCCCN2CCN(C(=O)CCC(=O)Nc3cccc(Sc4ncc(N5CCC(C)(N)CC5)nc4N)c3Cl)CC2)C(C)(C)C)cc1 (single isomer, unassigned) : > 95%
3) Cc1ncsc1-c1ccc([C@H](C)NC(=O)[C@@H]2C[C@@H](O)CN2C(=O)[C@@H](NC(=O)CCCCCCCCCCCN2CCN(CC(=O)Nc3cccc(Sc4ncc(N5CCC(C)(N)CC5)nc4N)c3Cl)CC2)C(C)(C)C)cc1 (single isomer, unassigned) : > 95%
4) Cc1ncsc1-c1ccc([C@H](C)NC(=O)[C@@H]2C[C@@H](O)CN2C(=O)[C@@H](NC(=O)CCCCCCCCCCCNC(=O)CCCC(=O)Nc2cccc(Sc3ncc(N4CCC(C)(N)CC4)nc3N)c2Cl)C(C)(C)C)cc1 (single isomer, unassigned) : > 95%
5) Cc1ncsc1-c1ccc([C@H](C)NC(=O)[C@@H]2C[C@@H](O)CN2C(=O)[C@@H](NC(=O)COCCOCCOCCNC(=O)CCC(=O)Nc2cccc(Sc3ncc(N4CCC(C)(N)CC4)nc3N)c2Cl)C(C)(C)C)cc1 (single isomer, unassigned) : > 95%
6) Cc1ncsc1-c1ccc([C@H](C)NC(=O)[C@@H]2C[C@@H](O)CN2C(=O)[C@@H](NC(=O)CCCCCCCCCCN2CCN(CC(=O)Nc3cccc(Sc4ncc(N5CCC(C)(N)CC5)nc4N)c3Cl)CC2)C(C)(C)C)cc1 (single isomer, unassigned) : > 95%
7) Cc1ncsc1-c1ccc([C@H](C)NC(=O)[C@@H]2C[C@@H](O)CN2C(=O)[C@@H](NC(=O)CCCNC(=O)CC(=O)Nc2cccc(Sc3ncc(N4CCC(C)(N)CC4)nc3N)c2Cl)C(C)(C)C)cc1 (single isomer, unassigned) : 7%
8) Cc1ncsc1-c1ccc([C@H](C)NC(=O)[C@@H]2C[C@@H](O)CN2C(=O)[C@@H](NC(=O)CCCCCCCNC(=O)CC(=O)Nc2cccc(Sc3ncc(N4CCC(C)(N)CC4)nc3N)c2Cl)C(C)(C)C)cc1 (single isomer, unassigned) : 14%

====

Reported values of Activity for individual entries
# systemName: von Hippel-Lindau disease tumor suppressor/Tyrosine-protein phosphatase non-receptor type 11 (Homo sapiens, UniProt Q06124+P40337)
# protocol: Protac activity at VHL1/SHP2 in human KYSE520 cells assessed as induction of SHP2 degradation at 0.1 uM measured after 6 hrs by Western blot analysis relative to control
# Format: cell-based
readoutKind: Activity (%)

1) Cc1ncsc1-c1ccc([C@H](C)NC(=O)[C@@H]2C[C@@H](O)CN2C(=O)[C@@H](NC(=O)CCCCN2CCN(CCCCNC(=O)CCC(=O)Nc3cccc(Sc4ncc(N5CCC(C)(N)CC5)nc4N)c3Cl)CC2)C(C)(C)C)cc1 (single isomer, unassigned) : 0
2) Cc1ncsc1-c1ccc([C@H](C)NC(=O)[C@@H]2C[C@@H](O)CN2C(=O)[C@@H](NC(=O)COCCOCCOCCOCCNC(=O)CCC(=O)Nc2cccc(Sc3ncc(N4CCC(C)(N)CC4)nc3N)c2Cl)C(C)(C)C)cc1 (single isomer, unassigned) : 53
3) Cc1ncsc1-c1ccc([C@H](C)NC(=O)[C@@H]2C[C@@H](O)CN2C(=O)[C@@H](NC(=O)CCCCCCNC(=O)CC(=O)Nc2cccc(Sc3ncc(N4CCC(C)(N)CC4)nc3N)c2Cl)C(C)(C)C)cc1 (single isomer, unassigned) : 0

====

# Activity annotations
# systemName: von Hippel-Lindau disease tumor suppressor/Tyrosine-protein phosphatase non-receptor type 11 (Homo sapiens, UniProt Q06124+P40337)
# protocol: Protac activity at VHL1/SHP2 in human KYSE520 cells assessed as induction of SHP2 degradation at 1 uM measured after 6 hrs by Western blot analysis relative to control
# Type: cell-based
readoutKind: Activity (%)

1) Cc1ncsc1-c1ccc([C@H](C)NC(=O)[C@@H]2C[C@@H](O)CN2C(=O)[C@@H](NC(=O)CCCCCCNC(=O)CC(=O)Nc2cccc(Sc3ncc(N4CCC(C)(N)CC4)nc3N)c2Cl)C(C)(C)C)cc1 (single isomer, unassigned) : 0
2) Cc1ncsc1-c1ccc([C@H](C)NC(=O)[C@@H]2C[C@@H](O)CN2C(=O)[C@@H](NC(=O)CCCCCCCCNC(=O)CC(=O)Nc2cccc(Sc3ncc(N4CCC(C)(N)CC4)nc3N)c2Cl)C(C)(C)C)cc1 (single isomer, unassigned) : 80

====

Examples of molecules with documented Activity follow.
# systemName: von Hippel-Lindau disease tumor suppressor/Tyrosine-protein phosphatase non-receptor type 11 (Homo sapiens, UniProt Q06124+P40337)
# protocol: Protac activity at VHL1/SHP2 in human KYSE520 cells assessed as induction of SHP2 degradation at 1 uM measured after 6 hrs by Western blot analysis relative to control
# Type: cell-based
readoutKind: Activity (%)

1. Cc1ncsc1-c1ccc([C@H](C)NC(=O)[C@@H]2C[C@@H](O)CN2C(=O)[C@@H](NC(=O)CCCCNC(=O)CC(=O)Nc2cccc(Sc3ncc(N4CCC(C)(N)CC4)nc3N)c2Cl)C(C)(C)C)cc1 (single isomer, unassigned) : 6
2. Cc1ncsc1-c1ccc([C@H](C)NC(=O)[C@@H]2C[C@@H](O)CN2C(=O)[C@@H](NC(=O)CCNC(=O)CC(=O)Nc2cccc(Sc3ncc(N4CCC(C)(N)CC4)nc3N)c2Cl)C(C)(C)C)cc1 : 0

====

# systemName: von Hippel-Lindau disease tumor suppressor/Tyrosine-protein phosphatase non-receptor type 11 (Homo sapiens, UniProt Q06124+P40337)
# protocol: Protac activity at VHL1/SHP2 in human KYSE520 cells assessed as induction of SHP2 degradation at 0.1 uM measured after 6 hrs by Western blot analysis relative to control
# Format: cell-based
readoutKind: Activity (%)

1) Cc1ncsc1-c1ccc([C@H](C)NC(=O)[C@@H]2C[C@@H](O)CN2C(=O)[C@@H](NC(=O)CCCCCCCCNC(=O)CC(=O)Nc2cccc(Sc3ncc(N4CCC(C)(N)CC4)nc3N)c2Cl)C(C)(C)C)cc1 (single isomer, unassigned) : 81
2) Cc1ncsc1-c1ccc([C@H](C)NC(=O)[C@@H]2C[C@@H](O)CN2C(=O)[C@@H](NC(=O)CCOCCOCCOCCNC(=O)CCC(=O)Nc2cccc(Sc3ncc(N4CCC(C)(N)CC4)nc3N)c2Cl)C(C)(C)C)cc1 (single isomer, unassigned) : 32

====

# systemName: von Hippel-Lindau disease tumor suppressor/Tyrosine-protein phosphatase non-receptor type 11 (Homo sapiens, UniProt Q06124+P40337)
# protocol: Protac activity at VHL1/SHP2 in human KYSE520 cells assessed as induction of SHP2 degradation at 1 uM measured after 6 hrs by Western blot analysis relative to control
# Assay type: cell-based
readoutKind: Activity (%)

1) Cc1ncsc1-c1ccc([C@H](C)NC(=O)[C@@H]2C[C@@H](O)CN2C(=O)[C@@H](NC(=O)CCOCCOCCOCCNC(=O)CCC(=O)Nc2cccc(Sc3ncc(N4CCC(C)(N)CC4)nc3N)c2Cl)C(C)(C)C)cc1 (single isomer, unassigned) : 87
2) Cc1ncsc1-c1ccc([C@H](C)NC(=O)[C@@H]2C[C@@H](O)CN2C(=O)[C@@H](NC(=O)CCCCN2CCN(CCCCNC(=O)CCC(=O)Nc3cccc(Sc4ncc(N5CCC(C)(N)CC5)nc4N)c3Cl)CC2)C(C)(C)C)cc1 (single isomer, unassigned) : 82
3) Cc1ncsc1-c1ccc([C@H](C)NC(=O)[C@@H]2C[C@@H](O)CN2C(=O)[C@@H](NC(=O)CCCCCNC(=O)CC(=O)Nc2cccc(Sc3ncc(N4CCC(C)(N)CC4)nc3N)c2Cl)C(C)(C)C)cc1 (single isomer, unassigned) : 3

The measurements presented in this section are drawn from ChEMBL document CHEMBL4616666.
